# Test system: 2B4 cells apoptosis, DAPI nuclear morphology
# assay-notes: pro-apoptotic activity by DAPI nuclear scoring – imaging, DAPI fluorescence, 2B4 cells, MCL1-BIM inhibitor project, late-stage follow-up (AID 493059)
# experimental-parameters: at 25 µM; stronger effect = higher value
Would you mind telling me the reported apoptosis of each entry?
Numeric answer only, unit % assumed.

Problem: Would you kindly share the measured apoptosis for `c1coc(-c2nc(-c3ccco3)c(-c3ccco3)nc2-c2ccco2)c1` ?
Result: 0

Problem: Any idea what apoptosis was measured for `COc1ccc(Cc2nnc(NC(=O)Cc3cccs3)s2)cc1OC` ?
Result: 0

Problem: # query: apoptosis of entry `C=CCN=c1scc(-c2ccco2)n1/N=C/c1ccc(O)c(O)c1O`
Result: 98

Problem: # get_value(readout='apoptosis', item= Cc1c(Cl)cccc1NS(=O)(=O)c1ccc2c(c1)C1C=CCC1C(c1ccc(C(=O)O)cc1)N2 (stereo not given) )
Result: 0

Problem: Entry `Nc1ccc(C(=O)NN=Cc2cc(N=Nc3cccc4ccccc34)ccc2O)cc1` : reported apoptosis = ?
Result: 15

Problem: Which value of apoptosis has been reported for `CCOc1ccc(NC(=O)c2cccc(-n3cccc3)c2)cc1S(=O)(=O)N1CCOCC1` in the records?
Result: 6.1

Problem: Given the compound `COC(=O)c1ccccc1NCc1cc(=O)oc2cc(O)c(O)cc12` , what is its reported apoptosis?
Result: 14

Problem: Could you tell me which apoptosis is on file for `O=C(NN=Cc1ccc(-c2ccc(S(=O)(=O)Nc3ncccn3)cc2)o1)c1cc2ccccc2cc1O` ?
Result: 18

Problem: Which apoptosis value belongs to `O=C1COc2ccc(C(=O)COC(=O)/C=C/c3ccc(Br)o3)cc2N1` ?
Result: 3.4

Problem: Consider the compound `CC(C)n1c(SCC(=O)Nc2nncs2)nnc1-c1ccco1` and give its measured apoptosis.
Result: 0

----------
Task for the reader: assign each of the following compounds its reported apoptosis.
# Test system: 2B4 cells apoptosis, DAPI nuclear morphology
# assay-notes: pro-apoptotic activity by DAPI nuclear scoring – imaging, DAPI fluorescence, 2B4 cells, MCL1-BIM inhibitor project, late-stage follow-up (AID 493059)
# experimental-parameters: at 25 µM; stronger effect = higher value
Give the value, in units of %, as a plain number.

Problem: Which measured apoptosis value corresponds to `COc1ccc(-n2cccc2/C=C2\C(=N)N3N=C(c4ccco4)SC3=NC2=O)cc1` ?
Result: 3.7

Problem: Any idea what apoptosis was measured for `O=[N+]([O-])c1cc(CN2CCCC2)c2cccnc2c1O` ?
Result: 1.7

Problem: Item under review: O=C(O)COc1ccccc1C(Nc1ccccn1)c1cc(Cl)c2cccnc2c1O (centres undefined) . Reported apoptosis?
Result: 5.1

Problem: Consider the compound `O=C(Cn1cnc2sc(-c3ccccc3)cc2c1=O)NCc1ccco1` and give its measured apoptosis.
Result: 3.6
